Values were extracted from ChEMBL document CHEMBL4184200.

experiment: physchem

[
  {
    "smi": "CCc1nc2ccccc2n1CC(=O)c1ccc(Cl)c(S(N)(=O)=O)c1",
    "pKa": 8.8
  },
  {
    "smi": "NS(=O)(=O)c1cc(C(=O)CN2CCc3ccccc32)ccc1Cl",
    "pKa": 8.8
  },
  {
    "smi": "Cc1cc2ncn(CC(=O)c3cc(S(N)(=O)=O)c(Cl)cc3Cl)c2cc1C",
    "pKa": 8.3
  },
  {
    "smi": "Cc1cc2ncn(CC(=O)c3cc(S(N)(=O)=O)c(Cl)cc3Sc3ccccc3)c2cc1C",
    "pKa": 8.8
  },
  {
    "smi": "NS(=O)(=O)c1cc(C(=O)Cn2cnc3ccccc32)c(Cl)cc1Cl",
    "pKa": 8.3
  },
  {
    "smi": "Cc1nc2ccccc2n1CC(=O)c1ccc(Cl)c(S(N)(=O)=O)c1",
    "pKa": 8.8
  },
  {
    "smi": "NS(=O)(=O)c1cc(C(=O)Nn2cnc3ccccc32)c(Sc2ccccc2)cc1Cl",
    "pKa": 8.8
  },
  {
    "smi": "NS(=O)(=O)c1cc(C(=O)CN2CCCc3ccccc32)ccc1Cl",
    "pKa": 8.8
  },
  {
    "smi": "NS(=O)(=O)c1cc(C(=O)Nn2cnc3ccccc32)c(Cl)cc1Cl",
    "pKa": 8.3
  },
  {
    "smi": "Cc1cc2ncn(CC(=O)c3ccc(Cl)c(S(N)(=O)=O)c3)c2cc1C",
    "pKa": 8.8
  },
  {
    "smi": "NS(=O)(=O)c1cc(C(=O)Cn2ccnc2)c(Cl)cc1Cl",
    "pKa": 8.3
  },
  {
    "smi": "NS(=O)(=O)c1cc(C(=O)Cn2ccnc2-c2ccccc2)ccc1Cl",
    "pKa": 8.8
  }
]
